Tested on: aqueous buffer solubility, pH 5.0/6.2/7.4
assay_summary: compound solubility, pH 5.0, 6.2, 7.4 – biophysical, set 2, ADME assay (AID 624323)
test_parameters: measured here: solubility at pH 6.2; at 100 µM; stronger effect = higher value
Rule: solubility under 2 µg/mL gives no, otherwise yes.

Worked set:
compound	qualitative_label
CC[C@H]1CN2CCc3cc(OC)c(OC)cc3[C@@H]2C[C@@H]1C[C@H]1NCCc2cc(OC)c(OC)cc21	yes
Cc1ccc(N2CCN(S(=O)(=O)N3CCCCC3)CC2)c(C)c1	no
C=CCn1c(SCC(=O)c2ccc(O)c(O)c2)nnc1-c1ccccc1OC	yes

Item CN1CSC(=S)N(C)C1 with solubility of 2 µg/mL or above?
yes

Item CCCc1nc2c(=O)n(C)c(=O)nc-2n(C)n1 with solubility of 2 µg/mL or above?
yes

Item O=C(O)c1ccc(N2C(=O)/C(=C/c3ccc(-c4ccc([N+](=O)[O-])cc4)o3)C=C2c2ccccc2)cc1 with solubility of 2 µg/mL or above?
yes

###

Tested on: aqueous buffer solubility, pH 5.0/6.2/7.4
assay_summary: compound solubility, pH 5.0, 6.2, 7.4 – biophysical, set 2, ADME assay (AID 624323)
test_parameters: at 100 µM
The source made the active and inactive calls. The rule behind the calls is not given here.
# output must be one of 1 (yes) = active, 0 (no) = inactive

Worked set:
molecule	target_or_system	qualitative_label
COC(=O)c1ccccc1NC(=O)c1ccc(F)cc1	aqueous buffer solubility, pH 5.0/6.2/7.4	0 (no)
O=C(CCNS(=O)(=O)c1cccc2nsnc12)N1CCN(c2ccccn2)CC1	aqueous buffer solubility, pH 5.0/6.2/7.4	1 (yes)
COc1ccc(S(=O)(=O)N2CCN(S(=O)(=O)c3ccc4c(c3)OCCO4)CC2)cc1	aqueous buffer solubility, pH 5.0/6.2/7.4	0 (no)
O=C(O)c1cccnc1SCCc1ccccc1	aqueous buffer solubility, pH 5.0/6.2/7.4	1 (yes)
O=c1oc2c(O)c(O)cc3c(=O)oc4c(O)c(O)cc1c4c23	aqueous buffer solubility, pH 5.0/6.2/7.4	1 (yes)
Cn1cnc([N+](=O)[O-])c1Sc1ncnc2nc[nH]c12	aqueous buffer solubility, pH 5.0/6.2/7.4	1 (yes)
Cc1nc(SCc2nc3ccccc3[nH]2)c2oc3ccccc3c2n1	aqueous buffer solubility, pH 5.0/6.2/7.4	0 (no)
Cc1ccc(C(=O)n2c3ccccc3c3ccccc32)cc1	aqueous buffer solubility, pH 5.0/6.2/7.4	0 (no)
O=C(O)c1ccccc1OCc1ccccc1Br	aqueous buffer solubility, pH 5.0/6.2/7.4	1 (yes)
O=C(O)CCC(NS(=O)(=O)c1ccc(-c2ccccc2)cc1)C(=O)O (stereo unspecified)	aqueous buffer solubility, pH 5.0/6.2/7.4	1 (yes)

Here is the next item to consider.
Recorded call for O=c1c(O)c(-c2cc(O)c(O)c(O)c2)oc2cc(O)cc(O)c12 ?
0 (no)

###

Test system: aqueous buffer solubility, pH 5.0/6.2/7.4
assay_summary: compound solubility, pH 5.0, 6.2, 7.4 – biophysical, set 2, ADME assay (AID 624323)
test_parameters: measured here: solubility at pH 5.0; at 100 µM; stronger effect = higher value
The entries below come with measured log10 solubility values attached.
// units: µg/mL (pre-log); metric: solubility; scale: log10

chemical_string	recorded_number
Cc1cc(C)n(-c2nc(NCCCO)c3c4c(sc3n2)CCCC4)n1	1.25
Cn1nnnc1Sc1ncnc2scc(-c3ccccc3)c12	0.46
Cc1ccccc1N1CCN(c2ncnc3c2cnn3Cc2ccc(Cl)cc2)CC1	-1.52
c1ccc(-c2nnc(N3CCOCC3)nc2-c2ccccc2)cc1	0.30
CN(C)c1oc(-c2ccc(OCc3ccc(Cl)cc3)cc2)nc1C#N	-0.77
CSc1nc(-c2ccc(C)cc2)nc(C(Cl)Cl)n1	-1.70
Cc1cc(C)nc(-n2nc(C)c(Sc3ccc(F)cc3)c2N)n1	0.75

Query CN(C)c1nc(N)nc(CSc2nnnn2-c2cccc3ccccc23)n1 yields log10 solubility of 0.45
